Record form. Attribute: TGI. Fill in for each entry.
Test system: MCF7 breast
Test: NCI tumour cell line growth inhibition, 48 h
Residues, ends and D or L forms follow the SMILES beside them. *: point of attachment. Cbz = O=C(OCc1ccccc1)*
Form entry: value (µM) — number only.

q: Report TGI for Nc1cc(Cl)ccc1SSc1ccc(Cl)cc1N tested on MCF7 breast.
a: 15.7

q: // query: COc1ccc(OC)c(/C=C/c2ccnc3ccccc23)c1
a: 17.4

q: Query CC(C)C[C@@H](C=O)NC(=O)[C@H](CC(C)C)NC(=O)[C@H](CC(C)C)NC(=O)OCc1ccccc1 (Cbz-Leu-Leu-Leu-aldehyde) next
a: 14

q: Proceed to CC(C)(C)[Si](C)(C)OCC1OC(n2ccc(=O)[nH]c2=O)C(O[Si](C)(C)C(C)(C)C)[C@]12O[C@@H]2CO (stereo not given in full)
a: 38.2

q: Now this one: Cc1ccsc1C(=S)Nc1ccc(Cl)c(/C=N/OC(C)C)c1
a: 62.6

q: // query: CC/C=C\C[C@H](O)C/C=C1/C(=O)C=C[C@@H]1C/C=C\CCCCO
a: 10.6

---

System: SK-MEL-5 melanoma
Assay: NCI tumour cell line growth inhibition, 48 h
RECORDED METRIC: log10 TGI (log10 of the value in µM)
Each number you see is log10 of TGI, and the unit inside the log is µM.

q: Can you look up log10 TGI on SK-MEL-5 melanoma for O=c1oc2ccc(Br)cc2c(=O)n1-c1ccc(Cl)cc1F ?
a: 0.03

q: Similarly, CCN(CC)Cc1cc(Nc2ccnc3ccc4nn(C)nc4c23)ccc1O ?
a: 1.48

q: Now this one: COC(=O)Cn1c(=O)oc2nc(-c3ccccc3)cc(C(F)(F)F)c21
a: 1.79

q: Then this molecule: O=C1CC(N2C(=O)/C(=C/C(Cl)=C\c3ccc([N+](=O)[O-])cc3)SC2=S)C(=O)N1c1ccc(O)cc1 (stereo not drawn)
a: 0.56

q: Same read-out for COc1cc(/C=C2\N=C(c3ccccc3)N(c3nc4ccc(Sc5ccccc5)cc4[nH]3)C2=O)cc(OC)c1OC ?
a: 1.42

q: # iterate: NC(=O)CCSC(CC(=O)c1ccc(Cl)cc1)c1ccc(Cl)cc1 (stereo not drawn)
a: 1.63

q: What do we get for C=C1C(=O)O[C@H]2[C@H]1CC/C(CNC(=O)/C=C/c1ccccc1F)=C\CC[C@@]1(C)O[C@@H]21 ?
a: 0.52

q: What do you get for NCCSC(c1ccccc1)(c1ccccc1)c1ccccc1 ?
a: 0.35

q: Next entry: C=CC(=O)N1CC[C@H](n2nc(C#Cc3cc(OC)cc(OC)c3)c3c(N)ncnc32)C1
a: 1.83

---

Tested on: UACC-62 melanoma
Test: NCI tumour cell line growth inhibition, 48 h
Where a SMILES comes first, the peptide text is derived from it.
Give measured TGI for each item. Keep answers brief.

q: Entry CCCCCCCCCCCCC(Br)C(C)=O (stereo not given) : reported TGI = ?
a: > 100 µM

q: Can you check NC(N)=Nc1ccc(/C=C2\C=Cc3ccccc32)cc1 next?
a: 9.94 µM

q: Entry to check: COc1cc(C2OC[C@@H]3C(=O)OC[C@H]23)cc(O)c1OC (stereo not given in full)
a: > 100 µM

q: Moving on to the next molecule: CCC(C)C(NC(=O)C(CC(C)C)NC(=O)CNC(=O)C(NC(=O)C1CCCN1C(=O)C(CC(C)C)NC(=O)C(N)Cc1ccccc1)C(C)CC)C(=O)NC(CC(C)C)C(N)=O (stereo not given) (H-FLPIGLIL-NH2; configuration not given here)
a: > 75 µM

q: Another: COc1cc(CNc2c3ccccc3nc3ccccc23)cc(OC)c1OC
a: 7.74 µM

q: Now consider Oc1ccccc1/C=N\NC(=S)N/N=C/c1ccccc1O and answer again.
a: 7.56 µM

q: Now consider Cc1cc2c(cc1Cl)SC(c1ccccc1O)NS2(=O)=O (stereo not given) and answer again.
a: > 100 µM

q: Follow-up item: Cc1ccsc1-c1ccc2c(c1)COC2(CCCN(C)C)c1ccc(F)cc1 (stereo not given)
a: 4.04 µM

q: Lookup Cn1c(-c2c(N)n(Cc3ccc(F)cc3)c3nc(C#N)c(C#N)nc23)nc2ccccc21
a: 26.6 µM

q: Record: COc1ccc(-c2[nH]nc(N)c2-c2cc(OC)c(OC)c(OC)c2)cc1
a: > 100 µM

q: What would you report for Cc1ccc(Sc2ccccc2N)cc1 ?
a: > 100 µM

q: Cool, now CCOC(=O)N/N=C(\CC)OCC
a: > 100 µM

q: Same question for COc1cc(O)c2c(c1)C(=O)C1=C(C2=O)C(O)C[C@@](C)(O)C1 (stereo not given in full) please.
a: 3.1 µM

q: Repeat with C=CC1(c2ccc3ccccc3c2)OCC(CC)O1 (stereo not given)
a: 88.3 µM

q: Next up: O=c1c(-c2ccccc2)c(SCCN2CCOCC2)n(-c2ccccc2)c(=S)n1-c1ccccc1
a: > 100 µM

q: Similarly, CCCN(CCC)c1ccc(C=O)c(C)c1 ?
a: > 100 µM

q: Next record, please: CC1Cc2ccccc2N1C(=O)Cc1nc(N2CCOCC2)cc(=O)[nH]1 (stereo not given)
a: > 100 µM

q: Entry O=C1CS(=O)(=O)C(c2cccc(Oc3ccccc3)c2)N1C1CC1 (stereo not given) please
a: > 100 µM

q: Item: [Cu+2].[NH-]C(CC(=O)O)C(=O)O.[NH-]C(CC(=O)O)C(=O)O (stereo not given)
a: > 100 µM

q: And what about the molecule COc1cc(CNc2cnc3ccc(N)cc3n2)cc(OC)c1OC ?
a: > 100 µM

q: Please do the same for Cc1cc(=O)n2c3c(c4c(cc13)c(CN(C)C)cc(=O)n4C)OC2 as well.
a: 30.1 µM

q: Quick one: Cn1cc(C2=C(c3cn(CCCCCO)c4ccccc34)C(=O)NC2=O)c2ccccc21
a: 9.17 µM

q: Another: NC(=O)CCC(NC(=O)c1c2ccccc2nc2ccccc12)C(=O)O (stereo not given)
a: > 100 µM

q: Same read-out for Nc1nn(C(=O)Nc2c(F)cccc2F)c2ccccc12 ?
a: > 100 µM

q: Follow-up item: O=C1NC(=NCCc2ccccn2)S/C1=C\c1ccc2ncccc2c1
a: > 25 µM

---

Answer each item with its documented TGI.
System: HCT-15 colon
Assay: NCI tumour cell line growth inhibition, 48 h
Give just the number in µM; leave the unit off.

q: Which value of TGI has been reported for CCCc1cn2c(/C=N/N=C(N)N)c(-c3ccc(Cl)c([N+](=O)[O-])c3)nc2s1 in the records?
a: 3.07

q: // repeat for COc1cc(O)c2c(c1)C(=O)C1=C(C2=O)C(O)C[C@@](C)(O)C1 (some centres undefined) and report
a: 3.61

q: // repeat for CC(C)(C)c1cc(-c2nc3ccc(N4CCN(CCO)CC4)cc3[nH]2)cc(C(C)(C)C)c1O and report
a: 3.05

q: And the next one, Cc1ccsc1-c1ccc2c(c1)COC2(CCCN(C)C)c1ccc(F)cc1 (centres undefined) ?
a: 10.9

q: Same question, COC(=O)c1oc2c(C(=O)/C=C/c3ccc(OC)cc3)c(OCCN3CCOCC3)ccc2c1C this time
a: 3.12

---

Test system: MALME-3M melanoma
Experiment: NCI tumour cell line growth inhibition, 48 h
Provide the recorded TGI for the entries that follow.

q: Given the entry C(#CC1(Nc2ccccc2)CCN(Cc2ccccc2)CC1)C1(Nc2ccccc2)CCN(Cc2ccccc2)CC1 , report its measured TGI.
a: > 65.6 µM

q: Ok, now CC1=CC(=O)N(n2c(-c3ccccc3)n[nH]c2=O)C1=O
a: > 100 µM

q: Same thing, different molecule: N=C(N)c1ccc(N=Nc2c(O)ccc3cc4c(N=Nc5ccc(C(=N)N)cc5)c(O)ccc4cc23)cc1
a: > 100 µM

q: Same lookup for COc1cc(CCC(=O)NC[C@@H](O)c2ccccc2)ccc1O , please.
a: > 100 µM

q: And O=S(=O)(CCC[C@H]1[C@@H](CCOCc2ccccc2)C2CCCN1O2)c1ccccc1 (stereo partly drawn) ?
a: > 100 µM

q: # iterate: O=c1[nH]c(=O)n(CCOCP(=O)(O)O)nc1Br
a: > 100 µM

q: Repeat for the following molecule: Cc1ccccc1Nc1nc(NNC(=O)Cc2ccccc2)nc(NNC(=O)c2ccncc2)n1
a: > 10 µM

q: Item: O=C(O)C12CCC(CC1=O)C2 (stereo not drawn)
a: > 100 µM

q: Also O=c1c(-c2ccccc2)c(SCCN2CCOCC2)n(-c2ccccc2)c(=S)n1-c1ccccc1 , if possible.
a: > 100 µM

q: Now try O=C(CN=C(CN(c1ccccc1)c1ccccc1)Oc1ccc(Cl)cc1Cl)n1ccnc1 .
a: > 100 µM

q: Repeat with Cc1sc2c(c1C)C(c1ccc(Cl)cc1)=N[C@@H](CC(=O)NCCCN1CCN(C)CC1)c1nnc(C)n1-2
a: > 100 µM

q: Next up: O=C1NC(=NCCc2ccccn2)S/C1=C\c1ccc2ncccc2c1
a: > 25 µM

q: Proceed to CCC12C=CCN3CCC4(c5cc(C(c6ccc(OC)cc6)C6Cc7ccccc7N6)c(OC)cc5N(C)C4C(O)(C(=O)OC)C1O)C32 (stereo not drawn)
a: > 100 µM

q: Likewise for COc1ccc(-c2[nH]nc(N)c2-c2cc(OC)c(OC)c(OC)c2)cc1 ?
a: > 100 µM

q: Repeat with CCC1(c2ccc(N)cc2)CCC(=O)NC1=O (stereo not drawn)
a: > 4860 µM

q: One more molecule: O=C(O)c1ccc([C@@H]2C(=O)N(O)[C@@H]3C=CC[C@@H]32)cc1
a: > 100 µM

q: Again, but for CC(=O)n1[nH]c(=O)n(-c2ccccc2)c1=O
a: > 100 µM

q: Field entry: C[N+]12C=CC=C1C(N1CCCC1)c1scc(-c3ccc(F)cc3)c12 (stereo not drawn)
a: > 100 µM
